# System: HT29 colon
# assay: NCI-60 one-dose screen, 48 h (100 = growth as untreated, 0 = no growth, -100 = all killed)
# run.parameters: 10 µM unless noted
About 83,000 compounds went through this panel and 20% of them were active in at least one assay; those are over-represented in the sample as a whole. Active and inactive are the calls of the source. Rule for the calls: active = growth percent below 10; inactive = the rest.
measured.metric: growth

*Q* Complete the entry with growth for "[O-]/[N+](=C\c1ccccc1)CC1(O)CCCCC1"
*A* 102% (inactive)

* * *

# Test system: CAKI-1 renal
# assay: NCI-60 one-dose screen, 48 h
# run.parameters: 10 µM unless noted
About 83,000 compounds went through this panel and 20% of them were active in at least one assay; those are over-represented in the sample as a whole. Active and inactive are the calls of the source. How the source made its calls: active means growth percent below 10; inactive means the rest.
One label from this list, please: active, inactive

*Q* Dear colleague, could you share the recorded outcome for "F" when you have a moment?
*A* inactive

*Q* Dear colleague, could you share the recorded outcome for "Cc1cc(C)c2c(n1)sc1c(Nc3ccc(OCc4ccccc4)cc3)ncnc12" when you have a moment?
*A* inactive

*Q* Dear colleague, could you share the recorded outcome for CCOC(=O)c1ccccc1SC(C[N+](=O)[O-])c1ccccc1 (centres undefined) when you have a moment?
*A* inactive

*Q* Dear colleague, could you share the recorded outcome for "O=C(OCc1ccc2c(Br)cc(Br)c(O)c2n1)c1cc2ccccc2[nH]1" when you have a moment?
*A* active

*Q* Dear colleague, could you share the recorded outcome for "O=C(Nc1ccccc1Cl)Oc1ccc2ccccc2c1" when you have a moment?
*A* inactive

*Q* Dear colleague, could you share the recorded outcome for "COc1cc2c(cc1I)-c1c(cc(OC)c(OC)c1OC)CC[C@@H]2NC(C)=O" when you have a moment?
*A* active

*Q* Dear colleague, could you share the recorded outcome for "FC(F)(F)C1=NNC(c2ccc3ccccc3c2)=NN1" when you have a moment?
*A* inactive

*Q* Dear colleague, could you share the recorded outcome for "CNCCCNc1ccnc2cc(Cl)ccc12" when you have a moment?
*A* active

*Q* Dear colleague, could you share the recorded outcome for "COc1ccc2nc(C)cc(Nc3ccccc3O)c2c1" when you have a moment?
*A* active
